Sourced from the Immune Epitope Database (IEDB)

# assayed.system: HLA-A*69:01
# assay.notes: IEDB peptide-MHC binding, purified MHC/direct/fluorescence; filed as Kd, often an IC50 or EC50 that approximates it; bounds were set here for any values at or beyond the usual limits of such assays
# measurement.conditions: source organism: Pseudomonas savastanoi
pKd: −log10 of the molar value.
measured.attribute: pKd

Kindly note the recorded pKd for TYYPQVVLG , which is ≤ 4.70

* * *

# assayed.system: HLA-B*44:02
# assay.notes: IEDB peptide-MHC binding, purified MHC/competitive/radioactivity; filed as Kd, often an IC50 or EC50 that approximates it; bounds were set here for any values at or beyond the usual limits of such assays
# measurement.conditions: source organism: Dengue virus 3 Martinique/1243/1999
measured.attribute: pKd
Here pKd is given on a logarithmic scale as minus log10 of the concentration in mol/L.

So for VEPWLKNNQF , the logged pKd turned out to be 7.03

Per the records, this sequence ( GESNIVIGI ) has pKd equal to 7.97

* * *

# assayed.system: HLA-B*45:06
# assay.notes: IEDB peptide-MHC binding, purified MHC/competitive/fluorescence; filed as Kd, often an IC50 or EC50 that approximates it; bounds were set here for any values at or beyond the usual limits of such assays
# measurement.conditions: source organism: Homo sapiens
pKd: −log10 of the molar value.
measured.attribute: pKd

Bench note, HLA-B*45:06: MAMGILHTI , pKd reads ≤ 5.30

* * *

# assayed.system: HLA-B*40:01
# assay.notes: IEDB peptide-MHC binding, purified MHC/direct/fluorescence; filed as Kd, often an IC50 or EC50 that approximates it; bounds were set here for any values at or beyond the usual limits of such assays
# measurement.conditions: source organism: Corynebacterium glutamicum
measured.attribute: pKd
By convention, pKd is the negative base-10 log of a molar concentration.

pKd for YELLRYNEY is 4.85

* * *

# assayed.system: HLA-B*40:01
# assay.notes: IEDB peptide-MHC binding, purified MHC/competitive/radioactivity; filed as Kd, often an IC50 or EC50 that approximates it; bounds were set here for any values at or beyond the usual limits of such assays
# measurement.conditions: source organism: SARS coronavirus Tor2
pKd: −log10 of the molar value.
measured.attribute: pKd

Note to self: pKd recorded for QEAYEQAVA was ≤ 4.59

Form: sequence = KDCVMYASAL ; pKd = ≤ 4.22

Entry AEGSRGGSQA ; pKd = ≤ 4.55

* * *

# assayed.system: HLA-A*02:02
# assay.notes: IEDB peptide-MHC binding, purified MHC/competitive/radioactivity; filed as Kd, often an IC50 or EC50 that approximates it; bounds were set here for any values at or beyond the usual limits of such assays
# measurement.conditions: source organism: Vaccinia virus WR
measured.attribute: Kd (nM)
Number only, in nM; omit the unit.

Field Kd (entry YLSDSDNIKI ) reads 16.3

Short answer for IVILFIMFM : Kd was 1860

In plain terms, QLVKDESIQL has a documented Kd of 157

Please fill in: Kd reported for VMPEKRNVVV = 3540

So for DTEFINKFL , the logged Kd turned out to be 7420

* * *

# assayed.system: HLA-A*68:01
# assay.notes: IEDB peptide-MHC binding, purified MHC/competitive/radioactivity; filed as Kd, often an IC50 or EC50 that approximates it; bounds were set here for any values at or beyond the usual limits of such assays
# measurement.conditions: source organism: Vaccinia virus WR
pKd: −log10 of the molar value.
measured.attribute: pKd

pKd of IILAALFMY , assay on HLA-A*68:01, is ≤ 4.25

Entry NLEMIDERKY : pKd on HLA-A*68:01 = ≤ 4.67

Lab note: sequence IIGHIGHHY tested on HLA-A*68:01; recorded pKd was ≤ 4.64

* * *

# assayed.system: HLA-B*07:02
# assay.notes: IEDB peptide-MHC binding, purified MHC/competitive/radioactivity; filed as Kd, often an IC50 or EC50 that approximates it; bounds were set here for any values at or beyond the usual limits of such assays
# measurement.conditions: source organism: Vaccinia virus WR
Can you tell me Kd for the items I'm about to list?

MPVETLFGSY tested on HLA-B*07:02 gave Kd: ≥ 44 µM

PPFTQHLLNI tested on HLA-B*07:02 gave Kd: ≥ 69.6 µM

Record MTIREFPRK ; system HLA-B*07:02; Kd = ≥ 77.5 µM

* * *

# assayed.system: HLA-A*02:02
# assay.notes: IEDB peptide-MHC binding, purified MHC/competitive/radioactivity; filed as Kd, often an IC50 or EC50 that approximates it; bounds were set here for any values at or beyond the usual limits of such assays
# measurement.conditions: source organism: Vaccinia virus WR
Give measured Kd for each item. Keep answers brief.

get_value(item= RLLKNMKQCT , readout=Kd) returns ≥ 46.8 µM

Lab note: measured Kd of YASLTTIGTI was 6.29 µM

Lab note: measured Kd of VTSPLTGNNT was 1.45 µM

Noted for VTLNRIKIA : its Kd reads 13.3 µM

# Kd (sequence: DLNRMPTDML ) is 1.25 µM

Reported Kd ( TTTFITVLT ) = 2.46 µM

Entry SLVSKHWELT — recorded Kd = 0.409 µM

Lab note: measured Kd of YLPEVISTIA was 0.0109 µM

Measured Kd, LQQNNSFII : 11.7 µM

Noted for WVMDTLNGIM : its Kd reads 1.33 µM

Notebook: DTMSIYIAVA , Kd read as 0.0195 µM

Just so you know, measured Kd for CTSEIQNVT came out at 0.188 µM

The recorded Kd for entry VIVPDIKLDA equals ≥ 33.5 µM

Measured Kd of TIGTIAGGV : 0.298 µM

What the record says about VLTSVDIET : Kd is 0.382 µM

Short answer for VTYNIKPVIV : Kd was 4.92 µM

Record HIGHHYIWI . Reported Kd: 2.55 µM

response.value for RMPTDMLKL (field: Kd) = 0.95 µM

Kd in this record for MLDDFSAGA : 0.0684 µM

In plain terms, TVQEFIFSAL has a documented Kd of 0.0807 µM

Briefly, Kd measured for SLCPTKKLV : 3.16 µM

Per the records, this sequence ( VTPEYIKDL ) has Kd equal to 10.4 µM

sequence KLPTWLGAAI , Kd observed: 0.103 µM

# sequence DQDTMLFASA ; its Kd = 0.891 µM

Quick note, Kd for NIKISLNEI landed at 1.67 µM

response.value for TLFYCDERDA (field: Kd) = 0.271 µM

Record SVKNLILNFL , field Kd: 1.04 µM

* * *

Provide the reported pKd of each item.
# assayed.system: HLA-B*15:01
# assay.notes: IEDB peptide-MHC binding, purified MHC/competitive/radioactivity; filed as Kd, often an IC50 or EC50 that approximates it; bounds were set here for any values at or beyond the usual limits of such assays
# measurement.conditions: source organism: Vaccinia virus WR
Worth noting: pKd values are minus log10 of concentrations stated in mol/L.

Known value: HLA-B*15:01 pKd of the sequence NSIEYILSF equals 5.65

Considering LQHILIEYM , its pKd with HLA-B*15:01 was recorded as 5.91

pKd for HLA-B*15:01 with input LQAKSGSSL equals 8.34

Reading of pKd for FLHNYILYA with HLA-B*15:01: 5.81

Param item: NMRDLIVTF ; param system: HLA-B*15:01; output pKd: 8.08

Field pKd (system: HLA-B*15:01) for entry KIKHKGMSF = 7.33

Fill in: HLA-B*15:01 pKd for KTIARFTYF = 9.71

The sequence FIFLKKNEL on HLA-B*15:01: pKd was 5.32

Readout pKd for VISDLFPSF , test system HLA-B*15:01, was 6.68

Entry MSSSQDLSF , HLA-B*15:01 data, pKd value: 7.80

* * *

# assayed.system: HLA-A*02:06
# assay.notes: IEDB peptide-MHC binding, purified MHC/competitive/radioactivity; filed as Kd, often an IC50 or EC50 that approximates it; bounds were set here for any values at or beyond the usual limits of such assays
# measurement.conditions: source organism: Vaccinia virus WR
measured.attribute: Kd (nM)
Report only the number, with the unit nM understood.

// SQIFNIISYI : Kd value = 23.5

What the record says about WVMDTLNGIM : Kd is 129

Lab note: FVVNGHTCM gave Kd of 1810

Looking up SVKNLILNFL , I found its Kd recorded as 551

Record GLKIEEIEKV . Reported Kd: 198

For WLKDSAIMV the sequence record lists Kd as 2280

Form field Kd, entry IVILFIMFM : 741

Just so you know, measured Kd for DTMSIYIAVA came out at 1480

Reported Kd for CTSEIQNVT was 10200

Kd in this record for TLFYCDERDA : 19500

SIFVSTMPV yielded Kd of 81.9

Briefly, Kd measured for QLVKDESIQL : 1810

Looking up TITTFIPISA , I found its Kd recorded as 4840

Entry under test: YASLTTIGTI . Its Kd was 83.6

For this sequence ( RMPTDMLKL ), measured Kd is 678

Looking up VTSPLTGNNT , I see its Kd listed as 5130

Reported Kd ( VTPEYIKDL ) = 1760

Reported Kd ( VTLNRIKIA ) = 625

Form field Kd, entry DQTHIKTIAV : 1000

# Kd of FTDCRTIDAI = 751

TVQEFIFSAL has a reported Kd of 43.9

Per the record, YLSDSDNIKI has Kd of 906
